Data origin: patent US20250074919A1

SYSTEM TESTED: UniProt:Q9NWZ3
EXPERIMENTAL PROTOCOL: Screening the compounds against IRAK4 with ATP (Caliper, FAM-labeled peptide)
Format: biochemical
EXPERIMENTAL SETUP: read-out: IC50 (nM) (10 μM ATP); IRAK4 kinase, 10 μM ATP
Each record is given y if its reported IC50 is strictly below 80 nM. Records at or above 80 nM are given n.

MOLECULE | GROUP
CC(Oc1nc2c(cc1C(=O)Nc1cccc(-c3cnn(C)c3)n1)CC(C)(C)O2)C1CC1 (stereo not shown) [Compound B26] | y
CN1CCN(c2nc3nc(N4CCOCC4)oc3cc2C(=O)Nc2cccc(-c3cnn(C)c3)n2)CC1 [Compound A3] | y
Cn1cc(-c2cccc(NC(=O)c3cc4c(nc3O)OC(C)(C)C4)n2)cn1 [Compound B34] | n
Cn1cc(-c2cccc(NC(=O)c3cc4c(nc3OC3CC3)OC(C)(C)C4)n2)cn1 [Compound B29] | y
Cn1cc(-c2cccc(NC(=O)c3cc4c(nc3OC(F)F)OC(C)(C)C4)n2)cn1 [Compound B20] | y
CN1CCC(Oc2nc3c(cc2C(=O)Nc2cccc(-c4cnn(C)c4)n2)CC(C)(C)O3)C1 (stereo not shown) [Compound B21] | y
Cc1cc(-c2nc(NC(=O)c3cc4oc(N5CCOCC5)nc4nc3N3CC[C@@H](O)C3)co2)ccn1 [Compound A49] | n
Cn1cc(-c2cccc(NC(=O)c3cc4c(nc3OC3CNC(=O)OC3)OC(C)(C)C4)n2)cn1 (stereo not shown) [Compound B28] | n
COc1cccc(NC(=O)c2cc3oc(N4CCOCC4)nc3nc2N2CCC(OC)CC2)n1 [Compound A46] | n
Cn1cc(-c2cccc(NC(=O)c3cc4oc(N5CCOCC5)nc4nc3N3CC4(C3)CC(F)(F)C4)n2)cn1 [Compound A15] | n
CN(C)C1CCN(c2nc3nc(N4CCOCC4)oc3cc2C(=O)Nc2cccc(-c3cnn(C)c3)n2)CC1 [Compound A23] | n
COC1CCN(c2nc3nc(N4CCOCC4)oc3cc2C(=O)Nc2cccc(-c3cnn(C)c3)n2)CC1 [Compound A24] | y

====

EXPERIMENTAL PROTOCOL: Metabolic stability in mouse liver microsomes
Format: in vitro ADME, CD-1 Mouse
EXPERIMENTAL SETUP: CD-1 mouse liver microsomes, NADPH, 37° C.; read-out: Mouse microsome (t1/2)
Entries and their half-life values follow.
ATTRIBUTE MEASURED: half-life (h)

SMILES REPR | ATTRIBUTE MEASURED | LIMIT SIGN | TEST VALUE
Cn1cc(-c2cccc(NC(=O)c3cc4oc(N5CCOCC5)nc4nc3N3CC[C@@H](O)C3)n2)cn1 | half-life | > | 2.42
Cn1cc(-c2cccc(NC(=O)c3cc4oc(N5CCOCC5)nc4nc3N3CCC(O)CC3)n2)cn1 | half-life | > | 2.42
Cn1cc(-c2cccc(NC(=O)c3cc4c(nc3N3CCC(O)CC3)OC(C)(C)C4)n2)cn1 | half-life | = | 1.18
COC1CCN(c2nc3nc(N4CCOCC4)oc3cc2C(=O)Nc2cccc(-c3cnn(C)c3)n2)CC1 | half-life | = | 1.48

====

SYSTEM TESTED: IRAK4 (Homo sapiens (Human), UniProt Q9NWZ3)
Sequence (Q9NWZ3 whole entry): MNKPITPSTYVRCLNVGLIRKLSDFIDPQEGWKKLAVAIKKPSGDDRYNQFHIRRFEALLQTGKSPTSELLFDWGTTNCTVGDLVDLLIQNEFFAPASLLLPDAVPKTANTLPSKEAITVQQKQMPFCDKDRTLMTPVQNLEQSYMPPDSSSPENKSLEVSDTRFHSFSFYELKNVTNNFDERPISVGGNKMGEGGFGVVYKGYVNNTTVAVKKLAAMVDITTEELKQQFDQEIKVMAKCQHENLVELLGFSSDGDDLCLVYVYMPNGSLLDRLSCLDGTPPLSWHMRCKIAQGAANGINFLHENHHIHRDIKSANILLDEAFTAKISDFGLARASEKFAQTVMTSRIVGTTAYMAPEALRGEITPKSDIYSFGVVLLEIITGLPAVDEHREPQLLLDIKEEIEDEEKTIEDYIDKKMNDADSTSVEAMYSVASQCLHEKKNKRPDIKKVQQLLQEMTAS
EXPERIMENTAL PROTOCOL: Kinase binding ability (KINOMEscan site-directed competition binding assay)
EXPERIMENTAL SETUP: Kd between IRAK4 and compound

MOLECULE | Kd / nM
Cn1cc(-c2cccc(NC(=O)c3cc4oc(N5CCOCC5)nc4nc3N3CC[C@@H](O)C3)n2)cn1 [Compound A1] | 29
Cn1cc(-c2cccc(NC(=O)c3cc4oc(N5CCOCC5)nc4nc3N3CCC(O)CC3)n2)cn1 [Compound A4] | 0.59
Cn1cc(-c2cccc(NC(=O)c3cc4c(nc3N3CCC(O)CC3)OC(C)(C)C4)n2)cn1 [Compound B5] | 0.69
